Data origin, for the record: patent US20250059182A1

system: pERK in MKN1 cells; assay: pERK inhibition, In-Cell Western (LI-COR Odyssey), MKN1 cells; type: cell-based; details: Homo sapiens, MKN-1, Table B1; MKN1 or H358 cells (table does not say which); 0.5-1 hour incubation; read-out: IC50 (nM), pERK inhibition
In this section we review reported IC50 values for a set of compounds.
Quantity Kind: IC50 (nM)

- Cc1c(C#N)cccc1[C@@H](C)Nc1nnc(C)c2cnc(N3CCc4ncn(C)c4C3)cc12 [Example P-57]: 914
- Cc1c(C#N)cccc1[C@@H](C)Nc1nnc(C)c2c(C)nc(N3CCOCC3)cc12 [Example P-188]: 49.1
- Cc1nnc(N[C@H](C)c2cccc(C(C)(F)F)c2F)c2cc(N(C)[C@H]3CCN(C)C3)ncc12 [Example P-200]: 6.77
- Cc1c(C#N)cccc1[C@@H](C)Nc1nnc(C)c2cc(F)c(N(C)[C@@H]3CCN(C)C3)cc12 [Example P-178]: 54.7
- Cc1c(C#N)cccc1[C@@H](C)Nc1nnc(C)c2cnc(N3CCn4cnnc4C3)cc12 [Example P-21]: 2560
- Cc1c(C#N)cccc1[C@@H](C)Nc1nnc(C)c2c(C)nc(N(C)[C@H]3CCN(C)C3)cc12 [Example P-190]: 63.6
- Cc1nnc(N[C@H](C)c2cccc(C(F)F)c2F)c2cc(N3CCC34CN(C)C4)c(F)cc12 [Example P-234]: 50.2
- Cc1c(Br)cccc1[C@@H](C)Nc1nnc(C)c2cc(F)c(N3CCC34CN(C)C4)cc12 [Example P-214]: 156
- Cc1ccccc1[C@@H](C)Nc1nnc(C)c2cnc(N3CCOCC3)cc12 [Example P-212]: 894
- Cc1c(C#N)cccc1[C@@H](C)Nc1nnc(C)c2cnc(N3CCC3)cc12 [Example P-224]: 41.4
- Cc1nnc(N[C@H](C)c2cccc(C(C)(F)F)c2F)c2cc(-c3ccc(=O)n(C)c3)c(F)cc12 [Example P-173]: 573
- Cc1c(C#N)cccc1[C@@H](C)Nc1nnc(C)c2cc(Cl)c(N3CCC34CN(C)C4)cc12 [Example P-198]: 182
- COC1(c2cc3c(N[C@H](C)c4cccc(C#N)c4C)nnc(C)c3cc2F)CCN(C)CC1 [Example P-153]: 909
- Cc1c(C#N)cccc1[C@@H](C)Nc1nnc(C)c2cc(Cl)c(N3CCS(=O)(=O)CC3)cc12 [Example P-197]: 204
- Cc1c(C#N)cccc1[C@@H](C)Nc1nnc(C)c2c(C)nc(N3C[C@H]4C[C@@H]3CN4C)cc12 [Example P-192]: 104
- Cc1nnc(N[C@H](C)c2cccc(C(C)(F)F)c2F)c2cc(N(C)[C@@H]3CCN(C)C3)ncc12 [Example P-199]: 59.1
- Cc1nnc(N[C@H](C)c2cccc(C(F)F)c2F)c2cc(-c3ccc(=O)n(C)c3)ncc12 [Example P-239]: 606
- Cc1nnc(N[C@H](C)c2cccc(C(F)F)c2F)c2cc(N3CCC34COC4)ncc12 [Example P-233]: 18.8
- Cc1c(C#N)cccc1[C@@H](C)Nc1nnc(C)c2cc(F)c(N3CCC34CN(CCO)C4)cc12 [Example P-219]: 41.1
- Cc1c(C#N)cccc1[C@@H](C)Nc1nnc(C)c2cnc(N3CCc4nn(C)cc4C3)cc12 [Example P-51]: 120
- COC1(c2cc3c(N[C@H](C)c4cccc(C#N)c4C)nnc(C)c3cn2)CCOCC1 [Example P-81]: 565
- Cc1c(C#N)cccc1[C@@H](C)Nc1nnc(C)c2cnc(N3CCOCC34CN(C)C4)cc12 [Example P-211]: 503
